Molecular target: human ERβ (Homo sapiens, UniProt Q92731)
Sequence (Q92731 whole entry): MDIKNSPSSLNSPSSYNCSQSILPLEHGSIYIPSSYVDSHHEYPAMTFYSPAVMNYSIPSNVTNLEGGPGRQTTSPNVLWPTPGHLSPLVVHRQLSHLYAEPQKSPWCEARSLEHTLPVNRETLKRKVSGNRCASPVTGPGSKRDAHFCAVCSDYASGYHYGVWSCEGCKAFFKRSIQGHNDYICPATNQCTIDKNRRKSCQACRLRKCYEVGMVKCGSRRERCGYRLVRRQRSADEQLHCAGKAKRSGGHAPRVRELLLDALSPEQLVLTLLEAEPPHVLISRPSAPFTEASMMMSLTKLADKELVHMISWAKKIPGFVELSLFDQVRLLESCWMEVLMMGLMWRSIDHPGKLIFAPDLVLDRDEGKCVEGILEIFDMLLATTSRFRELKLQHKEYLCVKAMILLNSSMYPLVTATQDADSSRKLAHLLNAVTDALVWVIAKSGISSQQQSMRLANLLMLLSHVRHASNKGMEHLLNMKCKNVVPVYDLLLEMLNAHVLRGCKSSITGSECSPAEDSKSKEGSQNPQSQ
Assay: PolarScreen ERβ competitive binding assay (fluorescence polarization)
Conditions: recombinant human ERβ 23 nM, 4.5 nM Fluormone ES2 Green, 2 h; approximate IC50; read-out: IC50 (displacement of Fluormone ES2 Green from ERβ)
I'd appreciate it if you could supply IC50 values for the items below.
Note: unit nM is implicit; provide only the numeric part.

Q) Using the record for C[C@@H]1O[C@@H](OC[C@H]2O[C@@H](Oc3cc4c(O)cc(O)cc4[o+]c3-c3cc(O)c(O)c(O)c3)[C@H](O)[C@@H](O)[C@@H]2O)[C@H](O)[C@H](O)[C@H]1O [D3R, delphinidin-3-rutinoside] , report its IC50.
A) 2300

Q) Sample OC[C@H]1O[C@@H](Oc2cc3c(O)cc(O)cc3[o+]c2-c2ccc(O)c(O)c2)[C@H](O)[C@@H](O)[C@@H]1O [C3G, cyanidin-3-glucoside] — what was its IC50?
A) 2800

Q) Any idea what its IC50 is? The molecule is OC[C@H]1O[C@@H](Oc2cc3c(O)cc(O)cc3[o+]c2-c2cc(O)c(O)c(O)c2)[C@H](O)[C@@H](O)[C@@H]1O [D3G, delphinidin-3-glucoside]
A) 9700
